Documented Dmax across a set of compounds
# EXPERIMENTAL_SYSTEM: HiBit-BRG1 fusion protein in stable HeLa cell line expressing HiBit-BRG1 and LgBit (Homo sapiens, UniProt P51532)
# Construct: expressed in transfected cells
# Sequence (P51532 whole entry, the tested form may be a part): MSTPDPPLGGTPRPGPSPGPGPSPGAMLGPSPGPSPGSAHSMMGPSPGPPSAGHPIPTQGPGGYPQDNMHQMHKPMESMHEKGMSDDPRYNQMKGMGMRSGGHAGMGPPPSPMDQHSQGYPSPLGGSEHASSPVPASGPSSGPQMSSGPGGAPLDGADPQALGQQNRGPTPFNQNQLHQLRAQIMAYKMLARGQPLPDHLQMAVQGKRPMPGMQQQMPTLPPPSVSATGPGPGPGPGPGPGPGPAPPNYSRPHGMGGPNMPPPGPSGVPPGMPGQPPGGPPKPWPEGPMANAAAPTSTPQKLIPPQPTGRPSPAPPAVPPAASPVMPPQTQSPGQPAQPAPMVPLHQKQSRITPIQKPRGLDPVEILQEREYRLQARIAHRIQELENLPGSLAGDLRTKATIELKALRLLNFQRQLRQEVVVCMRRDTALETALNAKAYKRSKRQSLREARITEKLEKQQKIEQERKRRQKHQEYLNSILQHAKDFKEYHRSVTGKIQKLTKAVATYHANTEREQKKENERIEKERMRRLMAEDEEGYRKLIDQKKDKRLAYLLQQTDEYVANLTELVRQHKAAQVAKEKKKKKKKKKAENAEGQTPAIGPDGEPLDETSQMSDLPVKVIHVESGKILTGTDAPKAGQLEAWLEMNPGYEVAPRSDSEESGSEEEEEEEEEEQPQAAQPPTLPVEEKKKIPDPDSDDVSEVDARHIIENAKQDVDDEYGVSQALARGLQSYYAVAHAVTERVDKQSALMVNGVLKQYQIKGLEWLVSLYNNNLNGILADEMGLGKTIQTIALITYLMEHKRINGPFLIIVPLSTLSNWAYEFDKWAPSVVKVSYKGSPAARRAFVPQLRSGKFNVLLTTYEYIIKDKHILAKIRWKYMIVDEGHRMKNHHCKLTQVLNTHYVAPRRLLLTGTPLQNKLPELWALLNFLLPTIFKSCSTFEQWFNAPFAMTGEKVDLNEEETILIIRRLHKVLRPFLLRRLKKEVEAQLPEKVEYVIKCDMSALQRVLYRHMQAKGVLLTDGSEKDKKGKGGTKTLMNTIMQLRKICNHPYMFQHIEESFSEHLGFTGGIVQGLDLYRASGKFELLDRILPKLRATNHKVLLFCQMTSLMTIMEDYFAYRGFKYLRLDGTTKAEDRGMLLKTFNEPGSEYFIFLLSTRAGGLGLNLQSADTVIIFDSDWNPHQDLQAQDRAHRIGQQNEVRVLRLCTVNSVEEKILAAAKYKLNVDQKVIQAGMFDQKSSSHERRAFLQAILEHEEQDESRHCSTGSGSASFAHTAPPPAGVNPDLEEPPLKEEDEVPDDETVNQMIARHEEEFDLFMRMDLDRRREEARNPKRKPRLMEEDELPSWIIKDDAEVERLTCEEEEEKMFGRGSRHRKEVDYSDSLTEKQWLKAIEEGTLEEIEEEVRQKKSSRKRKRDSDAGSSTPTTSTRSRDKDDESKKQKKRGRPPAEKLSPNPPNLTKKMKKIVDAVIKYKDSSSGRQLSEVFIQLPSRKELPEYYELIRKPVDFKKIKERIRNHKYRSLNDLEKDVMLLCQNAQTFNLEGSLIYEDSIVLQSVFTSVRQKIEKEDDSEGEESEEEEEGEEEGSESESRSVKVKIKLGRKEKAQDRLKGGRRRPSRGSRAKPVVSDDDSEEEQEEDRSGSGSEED
# METHOD: HiBiT-BRG1 cell-based degradation assay (Nano-Glo HiBiT, 24 h)
# SETUP_CONDITIONS: HeLa HiBit-BRG1/LgBit cells, top dose 30 μM, read-out: BRG1 HiBit Degradation Maximum (%)

Take a look at these entries with their results.
Cc1ncsc1-c1ccc([C@H](C)NC(=O)[C@@H]2C[C@@H](O)CN2C(=O)C(C(C)C)n2cc(N3CCN(CC4CCCN(c5ccc6cc(-c7ccccc7O)nnc6c5)C4)CC3)nn2)cc1 (some centres unmarked) | > 75%
Cc1ncsc1-c1ccc([C@H](C)NC(=O)[C@@H]2C[C@@H](O)CN2C(=O)C(c2cc(N3CCC4(CCC(c5ccc6nnc(-c7ccccc7O)cc6c5)CC4)CC3)no2)C(C)C)cc1 (stereo in doubt) | > 75%

Qu. So what does the record say about Dmax for `Cc1ncsc1-c1ccc([C@H](C)NC(=O)[C@@H]2C[C@@H](O)CN2C(=O)[C@@H](c2cc(-c3cnc(N4CC[C@@H](c5ccc6cc(-c7ccccc7O)nnc6c5)C4)nc3)no2)C(C)C)cc1` ?
Ans. < 50%

Qu. So what does the record say about Dmax for `Cc1ncsc1-c1ccc([C@H](C)NC(=O)[C@@H]2C[C@@H](O)CN2C(=O)[C@@H](c2cc(-c3cnc(N4CC(c5cc6cc(-c7ccccc7O)nnc6cc5Cl)C4)nc3)no2)C(C)C)cc1` ?
Ans. > 75%

Qu. So what does the record say about Dmax for Cc1ncsc1-c1ccc([C@H](C)NC(=O)[C@@H]2C[C@@H](O)CN2C(=O)C(C(C)C)n2cc(N3CC4CN(c5ccc6cc(-c7ccccc7O)nnc6c5)CCC43)nn2)cc1 (some centres unmarked) ?
Ans. > 75%

====

# EXPERIMENTAL_SYSTEM: HiBit-BRG1 fusion protein in stable HeLa cell line expressing HiBit-BRG1 and LgBit (Homo sapiens, UniProt P51532)
# Construct: expressed in transfected cells
# METHOD: HiBiT-BRG1 cell-based degradation assay (Nano-Glo HiBiT, 24 h)
# SETUP_CONDITIONS: HeLa HiBit-BRG1/LgBit cells, top dose 30 μM, read-out: BRG1 HiBit Degradation Maximum (%)
OBSERVED_PROPERTY: Dmax

Cc1ncsc1-c1ccc([C@H](C)NC(=O)[C@@H]2C[C@@H](O)CN2C(=O)C(C(C)C)n2cc(N3CCC(C4CN(c5ccc6cc(-c7ccccc7O)nnc6c5)C4)C3)nn2)cc1 (stereo partly drawn) [Compound 235] | > 75%
Cc1ncsc1-c1ccc([C@H](C)NC(=O)[C@@H]2C[C@@H](O)CN2C(=O)[C@@H](c2cc(N3CCC(Oc4ccc5cc(-c6ccccc6O)nnc5c4)CC3)no2)C(C)C)cc1 [Compound 183] | > 50%

Now look at this entry.
Qu. So what does the record say about Dmax for CC(C)[C@@H](C(=O)N1C[C@H](O)C[C@H]1C(=O)N[C@@H](C)c1ccccc1)c1cc(-c2ccc3nnc(-c4ccccc4O)cc3c2)no1 [Compound 133] ?
Ans. > 75%

====

Documented DC50 across a set of molecules
# EXPERIMENTAL_SYSTEM: HiBiT-BRM fusion protein in stable HeLa cell line (Homo sapiens)
# Construct: expressed in transfected cells
# METHOD: HiBiT-BRM cell-based degradation assay (Nano-Glo HiBiT Lytic Detection, 24 h)
# Design: scale not given here
# SETUP_CONDITIONS: HeLa HiBiT-BRM cells, read-out: BRM HiBit Degradation IC50

Cc1ncsc1-c1ccc([C@H](C)NC(=O)[C@@H]2C[C@@H](O)CN2C(=O)C(C(C)C)n2cc(N3CCC4(CCCN4c4ccc5cc(-c6ccccc6O)nnc5c4)C3)nn2)cc1 (stereo partly shown) | > 100 nM

Qu. So what does the record say about DC50 for `CC(C)[C@@H](C(=O)N1C[C@H](O)C[C@H]1C(=O)N[C@@H](C)c1ccc(F)cc1)n1cc(N2CC3(CN(c4ccc5cc(-c6ccccc6O)nnc5c4)C3)C2)nn1` ?
Ans. < 10 nM

Qu. So what does the record say about DC50 for `Cc1ncsc1-c1ccc([C@H](C)NC(=O)[C@@H]2C[C@@H](O)CN2C(=O)[C@@H](c2cc(N3CC4(CC(Oc5ccc6cc(-c7ccccc7O)nnc6c5)C4)C3)no2)C(C)C)cc1` ?
Ans. < 10 nM

Qu. So what does the record say about DC50 for `Cc1ncsc1-c1ccc([C@H](C)NC(=O)[C@@H]2C[C@@H](O)CN2C(=O)[C@H](c2cc(-c3cnc(N4CC5(CC(c6ccc7cc(-c8ccccc8O)nnc7c6)C5)C4)nc3)no2)C(C)C)cc1` ?
Ans. > 10 nM

Qu. So what does the record say about DC50 for `Cc1ncsc1-c1ccc([C@H](C)NC(=O)[C@@H]2C[C@@H](O)CN2C(=O)[C@@H](c2cc(N3CC4(CC(c5ccc6cc(-c7ccccc7O)nnc6c5)C4)C3)no2)C(C)C)cc1` ?
Ans. < 10 nM

Qu. So what does the record say about DC50 for `Cc1ncsc1-c1ccc([C@H](C)NC(=O)[C@@H]2C[C@@H](O)CN2C(=O)[C@@H](c2cc(N3CCC(c4ccc5cc(-c6ccccc6O)nnc5c4)CC3)no2)C(C)C)cc1` ?
Ans. < 10 nM

====

# EXPERIMENTAL_SYSTEM: HiBit-BRG1 fusion protein in stable HeLa cell line expressing HiBit-BRG1 and LgBit (Homo sapiens, UniProt P51532)
# Construct: expressed in transfected cells
# METHOD: HiBiT-BRG1 cell-based degradation assay (Nano-Glo HiBiT, 24 h)
# SETUP_CONDITIONS: HeLa HiBit-BRG1/LgBit cells, top dose 30 μM, read-out: BRG1 HiBit Degradation Maximum (%)
# Experimental: Procedure: A stable HeLa cell line expressing HiBiT-BRM was generated. On day 0, 5000 cells were seeded in 40 μL of media into each well of 384-well cell culture plates. […] The plates were shaken for 10 minutes at room temperature and the bioluminescence read using an EnVision plate reader (PerkinElmer). […] The degradation % was calculated using the following formula: % degradation=100%−100%×(Lumsample−LumLC)/(LumHC−LumLC). […]
Documented Dmax across a set of compounds

Take a look at these entries with their results.
COc1cc2nnc(-c3ccccc3O)cc2cc1N1CC2(CN(c3cc([C@H](C(=O)N4C[C@H](O)C[C@H]4C(=O)N[C@@H](C)c4ccc(-c5scnc5C)cc4)C(C)C)on3)C2)C1 | > 75%
Cc1ncsc1-c1ccc([C@H](C)NC(=O)[C@@H]2C[C@@H](O)CN2C(=O)[C@H](c2cc(-c3cnc(N4CC[C@@H](c5ccc6cc(-c7ccccc7O)nnc6c5)C4)nc3)no2)C(C)C)cc1 | < 50%
Cc1ncsc1-c1ccc([C@H](C)NC(=O)[C@@H]2C[C@@H](O)CN2C(=O)C(c2cc(N3C[C@@H]4CN(c5ccc6cc(-c7ccccc7O)nnc6c5)C[C@H]4C3)no2)C(C)C)cc1 (stereo partly drawn) | < 50%
Cc1ncsc1-c1ccc([C@H](C)NC(=O)[C@@H]2C[C@@H](O)CN2C(=O)[C@@H](c2cc(N3CC4(CN(c5ccc6cc(-c7ccccc7O)nnc6c5)C4)C3)n(C)n2)C(C)C)cc1 (single isomer, unassigned) | < 50%
Cc1ncsc1-c1ccc([C@H](C)NC(=O)[C@@H]2C[C@@H](O)CN2C(=O)[C@@H](c2cc(N3CC[C@H](c4ccc5nnc(-c6ccccc6O)cc5c4)C3)no2)C(C)C)cc1 | < 50%
Cc1ncsc1-c1ccc([C@H](C)NC(=O)[C@@H]2C[C@@H](O)CN2C(=O)C(C(C)C)n2cc(N3C[C@H]4CN(c5ccc6cc(-c7ccccc7O)nnc6c5)C[C@H]4C3)nn2)cc1 (stereo partly drawn) | < 50%

Qu. So what does the record say about Dmax for Cc1ncsc1-c1ccc([C@H](C)NC(=O)[C@@H]2C[C@@H](O)CN2C(=O)C(c2cc(N3CCC(C4CN(c5ccc6cc(-c7ccccc7O)nnc6c5)C4)CC3)no2)C(C)C)cc1 (stereo partly drawn) ?
Ans. > 75%

Qu. So what does the record say about Dmax for `Cc1ncsc1-c1ccc([C@H](C)NC(=O)[C@@H]2C[C@@H](O)CN2C(=O)[C@H](c2cc(-c3cnc(N4CC[C@H](c5ccc6cc(-c7ccccc7O)nnc6c5)C4)nc3)no2)C(C)C)cc1` ?
Ans. < 50%

Qu. So what does the record say about Dmax for `Cc1ncsc1-c1ccc([C@H](C)NC(=O)[C@@H]2C[C@@H](O)CN2C(=O)[C@@H](c2cc(N3CCC(c4ccc5nnc(-c6ccccc6O)cc5c4)CC3)no2)C(C)C)cc1` ?
Ans. < 50%

====

Documented DC50 across a set of compounds
# EXPERIMENTAL_SYSTEM: HiBiT-BRM fusion protein in stable HeLa cell line (Homo sapiens, UniProt P51531)
# Construct: expressed in transfected cells
# Sequence (P51531 whole entry, the tested form may be a part): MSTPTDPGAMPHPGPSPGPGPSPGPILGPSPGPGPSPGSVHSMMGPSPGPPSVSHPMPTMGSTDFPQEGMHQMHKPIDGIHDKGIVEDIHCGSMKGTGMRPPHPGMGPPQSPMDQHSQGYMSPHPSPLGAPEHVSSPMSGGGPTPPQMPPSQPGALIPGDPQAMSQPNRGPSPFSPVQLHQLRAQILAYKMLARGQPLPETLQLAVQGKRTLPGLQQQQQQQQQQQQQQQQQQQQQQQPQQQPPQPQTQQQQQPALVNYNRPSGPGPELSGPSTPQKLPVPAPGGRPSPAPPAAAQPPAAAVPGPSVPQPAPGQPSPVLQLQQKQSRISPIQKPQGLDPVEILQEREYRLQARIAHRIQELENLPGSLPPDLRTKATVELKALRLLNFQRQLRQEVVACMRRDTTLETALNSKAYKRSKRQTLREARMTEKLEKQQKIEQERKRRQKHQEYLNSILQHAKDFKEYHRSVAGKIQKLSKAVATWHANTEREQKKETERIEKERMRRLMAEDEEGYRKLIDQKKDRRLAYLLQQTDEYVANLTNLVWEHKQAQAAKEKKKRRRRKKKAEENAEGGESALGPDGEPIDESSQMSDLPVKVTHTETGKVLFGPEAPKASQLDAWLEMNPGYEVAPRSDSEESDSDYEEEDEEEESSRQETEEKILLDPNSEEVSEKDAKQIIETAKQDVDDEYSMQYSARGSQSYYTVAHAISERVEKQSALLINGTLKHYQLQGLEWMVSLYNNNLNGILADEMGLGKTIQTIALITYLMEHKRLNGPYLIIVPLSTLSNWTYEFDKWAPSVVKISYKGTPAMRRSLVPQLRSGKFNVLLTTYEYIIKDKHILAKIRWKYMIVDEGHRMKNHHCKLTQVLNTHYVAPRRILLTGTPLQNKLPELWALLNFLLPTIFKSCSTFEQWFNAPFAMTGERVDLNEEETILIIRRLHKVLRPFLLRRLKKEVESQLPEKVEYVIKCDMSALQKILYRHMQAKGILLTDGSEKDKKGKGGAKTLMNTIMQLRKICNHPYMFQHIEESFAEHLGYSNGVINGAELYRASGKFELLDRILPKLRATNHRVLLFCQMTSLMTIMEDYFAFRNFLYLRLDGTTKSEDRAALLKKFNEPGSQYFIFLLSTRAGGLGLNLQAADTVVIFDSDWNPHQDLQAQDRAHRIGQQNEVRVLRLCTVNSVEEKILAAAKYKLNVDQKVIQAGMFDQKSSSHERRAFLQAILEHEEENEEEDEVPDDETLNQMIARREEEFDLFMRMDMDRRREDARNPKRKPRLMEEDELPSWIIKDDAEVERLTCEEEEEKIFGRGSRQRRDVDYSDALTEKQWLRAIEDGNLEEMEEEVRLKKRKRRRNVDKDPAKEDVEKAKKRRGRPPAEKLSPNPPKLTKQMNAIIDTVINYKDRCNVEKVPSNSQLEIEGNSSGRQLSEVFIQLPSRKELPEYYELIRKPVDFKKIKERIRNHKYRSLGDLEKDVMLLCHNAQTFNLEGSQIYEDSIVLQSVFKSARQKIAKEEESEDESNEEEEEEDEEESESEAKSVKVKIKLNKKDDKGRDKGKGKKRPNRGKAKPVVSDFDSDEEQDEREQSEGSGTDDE
# METHOD: HiBiT-BRM cell-based degradation assay (Nano-Glo HiBiT Lytic Detection, 24 h)
# Set-up: scale not given here
# SETUP_CONDITIONS: HeLa HiBiT-BRM cells, read-out: BRM HiBit Degradation IC50

Cc1ncsc1-c1ccc([C@H](C)NC(=O)[C@@H]2C[C@@H](O)CN2C(=O)[C@@H](c2cc(N3CCC4(CC3)CC(Oc3ccc5cc(-c6ccccc6O)nnc5c3)C4)no2)C(C)C)cc1 [Compound 78] | > 10 nM
Cc1ncsc1-c1ccc([C@H](C)NC(=O)[C@@H]2C[C@@H](O)CN2C(=O)[C@H](C2CC2)n2cc(N3CC4(CN(c5ccc6cc(-c7ccccc7O)nnc6c5)C4)C3)nn2)cc1 (single isomer, unassigned) [Compound 210] | < 10 nM

Now look at this entry.
Qu. So what does the record say about DC50 for Cc1ncsc1-c1ccc([C@H](C)NC(=O)[C@@H]2C[C@@H](O)CN2C(=O)C(C(C)C)n2cc(N3CCC(C4CN(c5ccc6cc(-c7ccccc7O)nnc6c5)C4)C3)nn2)cc1 (stereo partly drawn) [Compound 235] ?
Ans. < 10 nM
